For each of the variants below, state its reverse-splicing fitness.
B1: Azoarcus group I ribozyme (parent)
chain: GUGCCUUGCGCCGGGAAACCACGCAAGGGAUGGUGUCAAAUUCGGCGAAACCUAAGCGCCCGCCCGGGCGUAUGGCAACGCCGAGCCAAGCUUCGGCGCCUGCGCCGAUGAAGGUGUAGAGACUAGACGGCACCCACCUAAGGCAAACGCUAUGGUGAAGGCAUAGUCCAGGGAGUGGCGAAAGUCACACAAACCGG

Variants of: B1
assay-comment: reverse-splicing fitness (ratio to wild type); higher = more active; in vitro selection; Mg2+ level not given

[ask] Consider the variant C82A A120U A145U C150A C169G U176G and give its measured reverse-splicing fitness.
[reply] 0.00136

[ask] I am curious: what reverse-splicing fitness value has been reported for A111G A120C A145U C150A C169U ?
[reply] 0.033

[ask] What value of reverse-splicing fitness has been reported for the following variant? C82G A120C A145C C150U U176C
[reply] 0.0273

[ask] Which reverse-splicing fitness is reported for this variant? A145U C150U U176A
[reply] 0.908

[ask] # get_value(readout='reverse-splicing fitness', item= C82U A111U C150A C169U U176C )
[reply] 0.0152

[ask] Report reverse-splicing fitness for C82U A111G A120G C169U please.
[reply] 0.0109

[ask] Which value of reverse-splicing fitness has been reported for C82G A111C A120G A145C C150G C169U in the records?
[reply] 0.00721

[ask] Entry C82A A120U A145C C150G C169A U176G : reported reverse-splicing fitness = ?
[reply] 0.00213

[ask] What reverse-splicing fitness value was documented for this variant, C82U A111C A120U A145C C169A U176C ?
[reply] 0.00244

[ask] Which reverse-splicing fitness is reported for this variant? C82A A111C A145G C150U C169U U176G
[reply] 0.00766

[ask] Request the reported reverse-splicing fitness associated with C82A A111U A120G A145C U176C
[reply] 0.012

[ask] # query: reverse-splicing fitness of entry C82A A111G A120C A145G C150U C169G U176C
[reply] 0.0192

[ask] # reverse-splicing fitness lookup, item A111U A120U A145G C150G C169U U176G
[reply] 0.00383

[ask] I'd like to know its reverse-splicing fitness. The variant in question is A111C A145C C169U U176C
[reply] 0.0254

[ask] Give its reverse-splicing fitness value. Item: C82U A111C A120C A145G C150A C169A U176A
[reply] 0.0163

[ask] Entry C82A A111C A145G C150G U176G has what reverse-splicing fitness?
[reply] 0.00607

[ask] Requested read-out: reverse-splicing fitness. Entry: C82U A120U C150G C169U U176C
[reply] 0.00349

[ask] Given the variant C82A A111U A120G A145G C169G U176G , what is its reported reverse-splicing fitness?
[reply] 0.00424

[ask] Sample C82G A120U C150A C169G — what was its reverse-splicing fitness?
[reply] 0.00295

[ask] Sample C82G A111U A120U C150A C169G — what was its reverse-splicing fitness?
[reply] 0.00506

[ask] Return reported reverse-splicing fitness; argument: C82U A111U A120U C150G U176A
[reply] 0.00352

[ask] Could you tell me which reverse-splicing fitness is on file for A111G A120U A145C C150A U176A ?
[reply] 0.0179

[ask] Which reverse-splicing fitness is listed for A120U A145U C169A U176A ?
[reply] 0.00339

[ask] Name the recorded reverse-splicing fitness for C82A A111C A120G A145U C150G C169U U176A .
[reply] 0.00693

[ask] // returns reported reverse-splicing fitness for input A111G A145G C150G C169G U176C
[reply] 0.00813

[ask] I have this variant here, C82U A111C A120U A145G U176G , and I need its recorded reverse-splicing fitness.
[reply] 0.00307

[ask] For C82G A120C C150G U176C , what is its reported reverse-splicing fitness?
[reply] 0.0138

[ask] Can you share its reverse-splicing fitness? I mean this variant: C82U A111C A120C A145U C150A C169A U176A
[reply] 0.0117

[ask] What value of reverse-splicing fitness has been reported for the following variant? C82U A111C A120C A145G
[reply] 0.0265

[ask] Need reverse-splicing fitness of C82A A111C A120C A145C C169U , thanks.
[reply] 0.0116

[ask] # input variant: C82G A111G A120C A145G C150G C169A ; wanted: its reverse-splicing fitness
[reply] 0.00978

[ask] Give its reverse-splicing fitness value. Item: C82G A120U A145C C150U C169U U176C
[reply] 0.00227

[ask] Look up reverse-splicing fitness: C82G A111G A120G A145G C150G C169G U176G
[reply] 0.0063

[ask] I am curious: what reverse-splicing fitness value has been reported for C82A A111G U176A ?
[reply] 0.189

[ask] Quick one: reverse-splicing fitness of C82U A111G A120G A145U C150A C169A U176G ?
[reply] 0.00458

[ask] Bench note: what reverse-splicing fitness did C82A A111C A145C C150U C169A U176G show?
[reply] 0.0095

[ask] Need reverse-splicing fitness, item C82A A120G C169U U176C
[reply] 0.0175

[ask] Need reverse-splicing fitness, item C82A A120U A145G C150A C169G U176C
[reply] 0.00523

[ask] Could you share which reverse-splicing fitness value was measured for C82A A111G A145C C150G C169U U176C ?
[reply] 0.0106

[ask] Which value of reverse-splicing fitness has been reported for C82G A120G A145U C150U C169G U176G in the records?
[reply] 0.00476

[ask] Value lookup for reverse-splicing fitness; key = C82A A111C A120G A145C C169G U176A
[reply] 0.0239

[ask] // returns reported reverse-splicing fitness for input C82A A120G A145C C150U C169U U176A
[reply] 0.0197

[ask] Would you mind telling me what reverse-splicing fitness value was observed for C82U A111U A145U C150U C169A ?
[reply] 0.00818

[ask] Look up reverse-splicing fitness: C82G A111G A120C A145U C150G C169G U176C
[reply] 0.0102

[ask] // query reverse-splicing fitness value for entry A111U A145C C169A U176G
[reply] 0.00602

[ask] Quick one: reverse-splicing fitness of C82A A120G A145U C150A C169U U176C ?
[reply] 0.0164

[ask] # query: reverse-splicing fitness of entry C82G A111C A120G A145C C150G C169U U176A
[reply] 0.00907

[ask] What value of reverse-splicing fitness has been reported for the following variant? C82U A111C A145U C150A C169A
[reply] 0.00884

[ask] I'd like to know its reverse-splicing fitness. The variant in question is C82U A120U C150U C169U
[reply] 0.00548

[ask] Fill blank: measured reverse-splicing fitness of the variant C82U A120C A145G C150U U176A is ____.
[reply] 0.0355

[ask] Name the reported reverse-splicing fitness value associated with the variant C82A A111U A120U A145C C150U C169A U176C
[reply] 0.00232

[ask] Given the variant C82U A111C A120G A145U C150U U176G , what is its reported reverse-splicing fitness?
[reply] 0.00357

[ask] I'd like to know its reverse-splicing fitness. The variant in question is C82A A111C A120U A145C C150G C169G U176C
[reply] 0.00325

[ask] Query: reverse-splicing fitness; subject: C82G A111U A120U A145U C150A U176A
[reply] 0.00457

[ask] Dear colleague, I am looking for the recorded reverse-splicing fitness of the following variant: C82U A111C A145G C169G
[reply] 0.00955

[ask] Any idea what reverse-splicing fitness was measured for C82A A111U A120G C150U C169U U176A ?
[reply] 0.0197

[ask] Query (variant): C82G A111U A120C A145U C150G ; field requested: reverse-splicing fitness
[reply] 0.0103

[ask] Query: reverse-splicing fitness; subject: C82A A111G A145U C150A U176G
[reply] 0.0106

[ask] Bench note: what reverse-splicing fitness did A111U A120C A145G U176C show?
[reply] 0.306

[ask] Entry C82U A111G A120G A145G U176A has what reverse-splicing fitness?
[reply] 0.0123

[ask] So what's the measured reverse-splicing fitness for this one? A111C C169A U176C
[reply] 0.0285

[ask] Give the measured reverse-splicing fitness of A145U C150G C169U U176G .
[reply] 0.00591

[ask] Can you share its reverse-splicing fitness? I mean this variant: C82U A111G A145C C150U C169A U176C
[reply] 0.00548

[ask] Which reverse-splicing fitness is reported for this variant? C82U A145U C150G C169A U176A
[reply] 0.0105

[ask] Query (variant): C82U A120C C150U C169U U176C ; field requested: reverse-splicing fitness
[reply] 0.0177

[ask] Endpoint output: reverse-splicing fitness of C82U A145C C150U C169U U176G . Value?
[reply] 0.00478

[ask] reverse-splicing fitness lookup needed for C82U A120U A145G C169A U176G , thanks.
[reply] 0.00152

[ask] I would be grateful if you could share the reported reverse-splicing fitness for C82U A111U A145C U176A .
[reply] 0.0966

[ask] Could you tell me which reverse-splicing fitness is on file for C82U A111U A120G C150G U176G ?
[reply] 0.00288

[ask] Could you tell me which reverse-splicing fitness is on file for C82G A120U A145G C169A ?
[reply] 0.00321

[ask] Entry C82A A120C A145U C150A C169G has what reverse-splicing fitness?
[reply] 0.00904

[ask] Name the reported reverse-splicing fitness value associated with the variant A111G A120C A145U C150G U176A
[reply] 0.0189

[ask] I am curious: what reverse-splicing fitness value has been reported for C82U A120G A145U C150G C169A ?
[reply] 0.00915

[ask] Can you share its reverse-splicing fitness? I mean this variant: C82G A111C A120G A145U C169U U176A
[reply] 0.0144

[ask] Please report the recorded reverse-splicing fitness for C82G A111U C150G C169G .
[reply] 0.00744

[ask] Form field: reported reverse-splicing fitness of A120U A145G C169U U176C
[reply] 0.126

[ask] # input variant: C82G A111C A120G A145C C150U U176A ; wanted: its reverse-splicing fitness
[reply] 0.0103

[ask] Entry C82A A120G A145G C150G : reported reverse-splicing fitness = ?
[reply] 0.00892

[ask] Bench note: what reverse-splicing fitness did C82G A120U C169A show?
[reply] 0.00257

[ask] Bench note: what reverse-splicing fitness did C82A A111U A120C C150U show?
[reply] 0.0206

[ask] What reverse-splicing fitness value was documented for this variant, C82A A111C A120U A145G C150U C169U U176A ?
[reply] 0.00523

[ask] Consider the variant shown here: C82U A111G A120U C150A C169U U176C What is its recorded reverse-splicing fitness?
[reply] 0.00372

[ask] Bench note: what reverse-splicing fitness did C82A A120C A145G C169U U176C show?
[reply] 0.0162

[ask] Request the reported reverse-splicing fitness associated with A145U C150G C169U
[reply] 0.0635

[ask] What value of measured reverse-splicing fitness is listed for C82A A120U A145C C150U C169U U176A ?
[reply] 0.00245

[ask] Query (variant): A111U A120C A145C C150G C169U U176A ; field requested: reverse-splicing fitness
[reply] 0.0109

[ask] Sample C82G A120G C150A C169G U176A — what was its reverse-splicing fitness?
[reply] 0.0215

[ask] Fill in the blank: the reported reverse-splicing fitness of A111C A145C C150A C169U U176C is ____.
[reply] 0.0102

[ask] Tell me the measured reverse-splicing fitness of C82A A111U A120G A145G U176C , please.
[reply] 0.0211

[ask] Need reverse-splicing fitness of C82G A111U A145G C169U , thanks.
[reply] 0.0131

[ask] What does the data say about its reverse-splicing fitness? Entry: A111C A120C A145G C150G C169U U176G
[reply] 0.0071

Origin of measurements: the RNAGym collection of RNA variant scans (doi:10.1093/molbev/msab373)
